- measuredTarget: bovine α1A receptor (Bos taurus, UniProt P18130)
- Construct: expressed in transfected cells; host or cells: HEK 293
- Sequence (P18130 1-466): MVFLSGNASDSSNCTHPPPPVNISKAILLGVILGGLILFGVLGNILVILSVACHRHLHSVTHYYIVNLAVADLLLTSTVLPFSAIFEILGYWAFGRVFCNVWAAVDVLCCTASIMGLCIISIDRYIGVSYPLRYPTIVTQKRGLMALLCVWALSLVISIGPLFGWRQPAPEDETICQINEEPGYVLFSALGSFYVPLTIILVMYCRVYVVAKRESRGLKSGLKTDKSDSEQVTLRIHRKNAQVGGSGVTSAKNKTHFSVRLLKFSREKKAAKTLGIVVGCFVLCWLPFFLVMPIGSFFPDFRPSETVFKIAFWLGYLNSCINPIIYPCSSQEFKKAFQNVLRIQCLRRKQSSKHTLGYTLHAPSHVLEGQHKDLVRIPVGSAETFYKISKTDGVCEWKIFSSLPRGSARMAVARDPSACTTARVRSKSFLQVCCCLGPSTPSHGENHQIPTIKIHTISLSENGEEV
- experimentSummary: FLIPR Ca+2 influx assay, α1A
- Assay type: cell-based
- testContext: relative efficacy compared to standard full agonist norepinephrine; HEK 293, bovine α1A
measuredParameter: Relative efficacy FLIPR α1A

Here are 4 molecules together with their reported answers.
CCCN(Cc1ccncc1)[C@@H]1CCc2cccc(O)c2C1 ... 0
CCN(Cc1ccncc1)C1CCc2cccc(OC)c2C1 (centres unmarked) ... 0
CCCN(Cc1ccncc1)[C@@H]1CCc2cccc(OC)c2C1 ... 0
CCN(Cc1ccccn1)C1CCc2cccc(OC)c2C1 (centres unmarked) ... 0

Report Relative efficacy FLIPR α1A for CCCN(Cc1ccccn1)C1CCc2cccc(OC)c2C1 (centres unmarked) please.
0

Report Relative efficacy FLIPR α1A for CCN(Cc1ccccn1)C1CCc2cccc(O)c2C1 (centres unmarked) please.
0

Report Relative efficacy FLIPR α1A for CCCN(Cc1ccncc1)C1CCc2cccc(O)c2C1 (centres unmarked) please.
0
